Where do the numbers come from? From patent US20250145687A1.

Target: α7-5HT3 L131G, Q139L, Y217H (Homo sapiens, UniProt P36544, L131G/M226I/Q139L/T225I/Y217H)
Sequence (P36544 with tags, fused parts or gaps L131G/Q139L/Y217H/T225I/M226I limits assumed): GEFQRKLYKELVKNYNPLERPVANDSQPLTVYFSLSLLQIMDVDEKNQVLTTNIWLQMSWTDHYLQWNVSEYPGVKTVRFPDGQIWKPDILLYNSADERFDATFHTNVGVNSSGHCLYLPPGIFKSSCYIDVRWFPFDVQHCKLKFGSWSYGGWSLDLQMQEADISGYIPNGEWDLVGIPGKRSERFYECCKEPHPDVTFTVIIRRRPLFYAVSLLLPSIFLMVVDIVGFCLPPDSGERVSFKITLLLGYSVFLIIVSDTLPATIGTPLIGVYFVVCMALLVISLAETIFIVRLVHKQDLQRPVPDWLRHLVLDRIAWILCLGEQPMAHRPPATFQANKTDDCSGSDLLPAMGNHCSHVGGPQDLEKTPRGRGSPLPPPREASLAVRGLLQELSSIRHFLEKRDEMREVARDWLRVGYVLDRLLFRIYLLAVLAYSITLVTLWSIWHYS
Assay: EC50 dose response, α7-5HT3 mutant
Settings: read-out: EC50s (SEM) for additional mutations of α7^L131G, Q139L, Y217F -5HT3
pEC50: −log10 of the molar value.
quantity-measured: pEC50

INSERT INTO measurements (compound, numeric_readout) VALUES
  ('COc1cnc2cc3c(cc2n1)C1CNCC3C1 (stereo not drawn) [uPSEM 793]', 9.10),
  ('CCCOc1cnc2cc3c(cc2n1)C1CNCC3C1 (stereo not drawn) [uPSEM 817]', 7.80),
  ('C[N+](C)(C)CCO [Choline, choline, reference compound]', 2.69);

* * *

The following compounds are listed with their measured EC50 values.
Target: α7^L131G,Q139L,Y217F-5HT3 H163D (Homo sapiens, UniProt P36544, H163D/L131G/M226I/Q139L/T225I/Y217F)
Sequence (P36544 with tags, fused parts or gaps L131G/Q139L/H163D/Y217F/T225I/M226I limits assumed): as the sequence (P36544 with tags, fused parts or gaps L131G/Q139L/Y217H/T225I/M226I limits assumed) above, with H141D, H195F counted along it
Test: EC50 dose response, PSAM4-5HT3 with additional mutations
Conditions: additional mutation H163D; read-out: EC50s (SEM) for additional mutations of α7^L131G, Q139L, Y217F -5HT3
quantity-measured: EC50

INSERT INTO measurements (compound, result) VALUES
  ('CCCOc1cnc2cc3c(cc2n1)C1CNCC3C1 (stereo not drawn) [uPSEM 817]', '2.5 nM'),
  ('C[N+](C)(C)CCO [Choline, choline, reference compound]', '361000 nM'),
  ('COc1cnc2cc3c(cc2n1)C1CNCC3C1 (stereo not drawn) [uPSEM 793]', '0.3 nM');

* * *

Molecular target: α7-5HT3 L131G, Q139L, Y217V (Homo sapiens, UniProt P36544, L131G/M226I/Q139L/T225I/Y217V)
Construct: 5HT3 ion pore domain (fusion partner); HEK 293 is named only for the electrophysiology
Sequence (P36544 with tags, fused parts or gaps L131G/Q139L/Y217V/T225I/M226I limits assumed): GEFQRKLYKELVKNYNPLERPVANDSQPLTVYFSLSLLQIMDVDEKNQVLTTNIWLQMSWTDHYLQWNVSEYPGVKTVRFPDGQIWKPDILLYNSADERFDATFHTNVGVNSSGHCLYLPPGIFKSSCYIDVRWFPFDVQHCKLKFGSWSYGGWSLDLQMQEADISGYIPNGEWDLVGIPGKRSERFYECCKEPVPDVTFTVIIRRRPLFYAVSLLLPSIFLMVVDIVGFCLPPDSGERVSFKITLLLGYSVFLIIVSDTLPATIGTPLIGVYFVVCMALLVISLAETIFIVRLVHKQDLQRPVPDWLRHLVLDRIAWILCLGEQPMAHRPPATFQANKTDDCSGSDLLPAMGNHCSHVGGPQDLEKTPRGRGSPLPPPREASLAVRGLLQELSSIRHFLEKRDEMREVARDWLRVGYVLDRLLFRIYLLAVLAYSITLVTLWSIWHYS
Test: EC50 dose response, α7-5HT3 mutant
Details: read-out: EC50s (SEM) for additional mutations of α7^L131G, Q139L, Y217F -5HT3
Below, each of the compounds is paired with its reported EC50 value.
quantity-measured: EC50

INSERT INTO results (compound, quantity_measured, result) VALUES
  ('C[N+](C)(C)CCO [Choline, choline, reference compound]', 'EC50', '1160 µM'),
  ('COc1cnc2cc3c(cc2n1)C1CNCC3C1 (stereo not drawn)', 'EC50', '0.0024 µM'),
  ('CCCOc1cnc2cc3c(cc2n1)C1CNCC3C1 (stereo not drawn)', 'EC50', '0.024 µM');

* * *

Biological target: α7^L131G,Q139L,Y217F-5HT3 H163T, S172A (Homo sapiens, UniProt P36544, H163T/L131G/M226I/Q139L/S172A/T225I/Y217F)
Construct: expressed in transfected cells; host or cells: HEK 293
Experiment: EC50 dose response, PSAM4-5HT3 with additional mutations
Type: cell-based
Settings: read-out: EC50s (SEM) for additional mutations of α7^L131G, Q139L, Y217F -5HT3
Examples of compounds with documented EC50 follow.
quantity-measured: EC50 (µM)

INSERT INTO results (compound, quantity_measured, quantity_unit, numeric_readout) VALUES
  ('COc1cnc2cc3c(cc2n1)C1CNCC3C1 (stereo not drawn)', 'EC50', 'µM', 0.0025),
  ('C[N+](C)(C)CCO [Choline, choline, reference compound]', 'EC50', 'µM', 1020),
  ('CCCOc1cnc2cc3c(cc2n1)C1CNCC3C1 (stereo not drawn)', 'EC50', 'µM', 0.0078);

* * *

Measured pEC50, listed per entry.
Target: α7-5HT3 L131G, Q139L, Y217A (Homo sapiens, UniProt P36544, L131G/M226I/Q139L/T225I/Y217A)
Assay: EC50 dose response, α7-5HT3 mutant
Conditions: read-out: EC50s (SEM) for additional mutations of α7^L131G, Q139L, Y217F -5HT3
pEC50: −log10 of the molar value.
quantity-measured: pEC50

INSERT INTO results (compound, study_system, numeric_readout) VALUES
  ('C[N+](C)(C)CCO [Choline, choline, reference compound]', 'α7-5HT3 L131G, Q139L, Y217A (Homo sapiens, UniProt P36544, L131G/M226I/Q139L/T225I/Y217A)', 3.08),
  ('CCCOc1cnc2cc3c(cc2n1)C1CNCC3C1 (stereo not drawn) [uPSEM 817]', 'α7-5HT3 L131G, Q139L, Y217A (Homo sapiens, UniProt P36544, L131G/M226I/Q139L/T225I/Y217A)', 8.04),
  ('COc1cnc2cc3c(cc2n1)C1CNCC3C1 (stereo not drawn) [uPSEM 793]', 'α7-5HT3 L131G, Q139L, Y217A (Homo sapiens, UniProt P36544, L131G/M226I/Q139L/T225I/Y217A)', 8.92);

* * *

// pEC50 lookup, one value per entry
Target: α7^L131G,Q139L,Y217F-5HT3 V154L, R155Y, W156Q (Homo sapiens, UniProt P36544, L131G/M226I/Q139L/R155Y/T225I/V154L/W156Q/Y217F)
Sequence (P36544 with tags, fused parts or gaps L131G/Q139L/V154L/R155Y/W156Q/Y217F/T225I/M226I limits assumed): as the sequence (P36544 with tags, fused parts or gaps L131G/Q139L/Y217V/T225I/M226I limits assumed) above, with V132L, R133Y, W134Q, V195F counted along it
Assay: EC50 dose response, PSAM4-5HT3 with additional mutations
Conditions: read-out: EC50s (SEM) for additional mutations of α7^L131G, Q139L, Y217F -5HT3
pEC50: −log10 of the molar value.
quantity-measured: pEC50

INSERT INTO assay_data (compound, numeric_readout) VALUES
  ('CCCOc1cnc2cc3c(cc2n1)C1CNCC3C1 (stereo not drawn)', 7.77),
  ('COc1cnc2cc3c(cc2n1)C1CNCC3C1 (stereo not drawn)', 9.15),
  ('C[N+](C)(C)CCO [Choline, choline, reference compound]', 4.03);

* * *

Biological target: α7^L131G,Q139L,Y217F-5HT3 W156N (Homo sapiens, UniProt P36544, L131G/M226I/Q139L/T225I/W156N/Y217F)
Construct: expressed in transfected cells; host or cells: HEK 293
Sequence (P36544 with tags, fused parts or gaps L131G/Q139L/W156N/Y217F/T225I/M226I limits assumed): as the sequence (P36544 with tags, fused parts or gaps L131G/Q139L/Y217H/T225I/M226I limits assumed) above, with W134N, H195F counted along it
Assay: cell-based
Format: cell-based
quantity-measured: EC50 (µM)

INSERT INTO results (compound, quantity_measured, numeric_readout) VALUES
  ('C[N+](C)(C)CCO [Choline, choline, reference compound]', 'EC50', 172);
